- System tested: CD28 (Homo sapiens, UniProt P10747)
- Assay text: Jurkat/IL2 + CHO/OKT3 +/- PD-L1 reporter assay: PD-L1-dependent CD28 costimulation
- Type: cell-based
- Parameters: host or cells: Jurkat cells expressing an IL-2-luciferase reporter
- Recorded conditions: Table E13; Jurkat/IL2 + CHO/OKT3/PD-L1; 5.0 nM
Quantity measured: Fold Increase over WT CD80-IgV-Fe
Keep it simple and answer with nothing but the number.

Query block: Entry E35D/M47L/Y53F/V68M/A71G/K93R/E95V (protein, UniProt P33681 35-288, looked up, variant E35D M47L Y53F V68M A71G K93R E95V) T-lymphocyte activation …: VIHVTKEVKEVATLSCGHNVSVEELAQTRIYWQKDKKMVLTMMSGDLNIWPEFKNRTIFDITNNLSIMILGLRPSDEGTYECVVLKYEKDAFRRVHLAEVTLSVKADFPTPSISDFEIPTSNIRRIICSTSGGFPEPHLSWLENGEELNAINTTVSQDPETELYAVSSKLDFNMTTNHSFMCLIKYGHLRVNQTFNWNTTKQEHFPDNLLPSWAITLISVNGIFVICCLTYCFAPRCRERRRNERLRRESVRPV needs its Fold Increase over WT CD80-IgV-Fe filled in; supply it.
Result block: 3.9

Entry source: patent US20220177587A1
